- Tested on: MDA-MB-231/ATCC
- EXPERIMENTAL PROTOCOL: NCI SRB growth inhibition (single dose 10 µM / five-dose)
- Type: cell-based, human
- COND: Homo sapiens; MDA-MB-231/ATCC, Breast cancer; five-dose
# GI50 values compiled below
Lab book: enter the figure in nM, no units written.

- MOLECULE: "COc1ccc(-c2nc3cc(C(=O)NN=Cc4ccccc4O)ccc3[nH]2)cc1 [8h]"
  UNIT ANNOTATION: "nM"
  GI50: 4480
- MOLECULE: "COc1cc(C=NNC(=O)c2ccc3[nH]c(-c4ccc(Cl)cc4)nc3c2)cc(OC)c1OC [8u]"
  UNIT ANNOTATION: "nM"
  GI50: 3390

molecule COc1cccc(C=NNC(=O)c2ccc3[nH]c(-c4ccc(Cl)cc4)nc3c2)c1O [8r] , GI50 observed: 1820

Item: COc1ccc(-c2nc3cc(C(=O)NN=Cc4cccc(OC)c4O)ccc3[nH]2)cc1 [8k] | GI50: 2800

Entry COc1cccc(C=NNC(=O)c2ccc3[nH]c(-c4ccccc4)nc3c2)c1O [8d] — recorded GI50 = 2410

# GI50 of COc1cccc(C=NNC(=O)c2ccc3[nH]c(-c4ccc(Cl)cc4)nc3c2)c1 [8q] = 1890

Per the records, this molecule ( O=C(NN=Cc1ccccc1O)c1ccc2[nH]c(-c3ccc(Cl)cc3)nc2c1 [8o] ) has GI50 equal to 1410

Sure, the documented GI50 for COc1ccc(-c2nc3cc(C(=O)NN=Cc4cccc(OC)c4)ccc3[nH]2)cc1 [8j] is 2430

Data provenance: paper PMC10893631
